Data provenance: the supplement of paper PMC10567573

Would you kindly list protein stability index for each of these variants?
B1: EIF5 (parent)
chain: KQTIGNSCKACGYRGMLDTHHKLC

Variants of: B1
Experiment: protein stability index of a GFP-peptide fusion (GPS, HEK-293T) (PSI 1-6); higher = more stable;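 note: lentivirally expressed fusions sorted by FACS into six bins by GFP to DsRed ratio, PSI derived from sequencing read proportions per bin multiplied by bin number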
Settings: c terminus: a fixed tail appended
Lab note: write the figure by itself, no unit.

Input line: Return value of protein stability index for input "H20G" , no commentary.
Output line: 2.56

Input line: Return value of protein stability index for input "L23D" , no commentary.
Output line: 4.67

Input line: Return value of protein stability index for input "I4M" , no commentary.
Output line: 3.63

Input line: Return value of protein stability index for input "T19V" , no commentary.
Output line: 2.49
